ASSAYED SYSTEM: T1, porcine pancreatic elastase (porcine, UniProt P00772 27-266)
T1 construct: substrate AAApNA
T1 sequence (P00772 27-266 limits assumed): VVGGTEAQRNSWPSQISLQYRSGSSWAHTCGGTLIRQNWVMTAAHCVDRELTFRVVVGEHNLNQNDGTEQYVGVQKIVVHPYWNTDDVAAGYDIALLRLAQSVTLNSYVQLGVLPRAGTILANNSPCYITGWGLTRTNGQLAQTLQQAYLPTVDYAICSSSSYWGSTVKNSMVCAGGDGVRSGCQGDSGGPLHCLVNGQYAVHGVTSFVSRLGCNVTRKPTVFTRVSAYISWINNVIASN
EXPERIMENT NOTES: elastase inhibition, AAApNA substrate, OD405
Bridge positions count the residues as written; N and C are the ends. Square brackets hold non-standard residues; d marks the D form. Ends that are not written are not given here. Nle = CCCC[C@H](N)C(=O)O
ASSAY METRIC: IC50 (µM)
One number for each entry, in µM.

Hey, quick one: what's IC50 for each of these?
1. CGI[Nle]TASIPPICQ (disulfide 1-12 (inferred), disulfide bond between the two Cys) [EC32]
2. VCTASIPPICQ (disulfide 2-10 (inferred), disulfide bond between the two Cys) [EC22]
3. LCTLSIPPQCY (disulfide 2-10 (inferred), disulfide bond between the two Cys) [EC2]
4. ICTASYPPQCR (disulfide 2-10 (inferred), disulfide bond between the two Cys) [EC27]
5. ICTASIPPICQ (disulfide 2-10 (inferred), disulfide bond between the two Cys) [EC23]

1. 21.4
2. 0.4
3. 3.19
4. 8.53
5. 0.25
